Origin of measurements: PubChem BioAssay

# test description: blockers of DNA damage checkpoint Chk1 activation – imaging, HeLa, hydroxyurea, phospho-Chk1 antibody, percent positive cells, primary screen (AID 1186)
# condition label: hydroxyurea-induced phospho-Chk1 immunofluorescence imaging, higher = more signal
Short version: z-score at least -0.09 is TRUE, less is FALSE.

Field: example entries. Status: answers known.
{"columns": ["molecule", "assigned category"],
 "data": [
  ["CC(C)CNC(=O)[C@@]1(c2ccc([N+](=O)[O-])cc2)CC(=O)N(C(C)C)[C@@H]1c1ccc(CO)cc1", "FALSE"],
  ["CC(C)C[C@@H]1NC(=O)[C@@H]2C[C@H](C(=O)NCc3ccc(F)cc3)[C@H](c3ccc(O)cc3)N2C1=O", "TRUE"],
  ["C[N+](C)(C)CCCCCCNC(=O)[C@@H]1C[C@@H]2C(=O)NCC(=O)N2[C@@H]1c1ccc(O)cc1", "TRUE"],
  ["CCCCCCC#C[Si](O[C@H](c1ccccc1)c1cn(Cc2cccc(Cl)c2)nn1)(C(C)C)C(C)C", "FALSE"],
  ["Cc1ccc(S[C@]2(C(=O)NCC(C)C)CC(=O)N(C3CCCCC3)[C@@H]2c2ccc(CO)cc2I)cc1", "TRUE"]
]}

## Input Does the reported z-score for `C=CCNC(=O)[C@@H]1[C@H]2C(=O)O[C@H](c3ccccc3)[C@H](c3ccccc3)N2[C@H](c2ccc(O)cc2)[C@@]12C(=O)Nc1ccc(C#CCCO)cc12` fall at or above the -0.09 mark?
## Output FALSE

## Input Subsequent entry: CC(C)C(CO)N1C(=O)[C@@H]2[C@H]3C(=O)OCC=C[C@H]3OC23C=CCN(CCN2CCOCC2)C(=O)[C@@H]13 (stereo partly drawn)
## Output TRUE

## Input Now this one: `C=CCOC(=O)[C@@H]1[C@H]2C(=O)O[C@H](c3ccccc3)[C@H](c3ccccc3)N2[C@H](c2ccc(OCCOC(=O)[C@H]3C[C@H]4C(=O)N[C@@H](Cc5ccccc5)C(=O)N4[C@H]3c3cccc(OCCO)c3)cc2)[C@@]12C(=O)Nc1ccc(I)cc12`
## Output FALSE

## Input // repeat for `C=CCOC(=O)[C@@H]1[C@H]2C(=O)O[C@H](c3ccccc3)[C@H](c3ccccc3)N2[C@H](c2ccc(OCCOC(=O)[C@@H]3C[C@@H]4C(=O)N5CCC[C@H]5C(=O)N4[C@@H]3c3cccc(OCCO)c3)cc2)[C@@]12C(=O)Nc1ccc(I)cc12` and report
## Output TRUE

----------
# tested target: Torsin-1A (Homo sapiens)
# test description: torsin A mutant lysate binding on microarrays – cell lysate, small-molecule microarray, COS7 lysate, 635/667 nm fluorescence, primary screen (AID 1150);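 also: score pools 667 nm emission and signal to noise measuring lysate protein binding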
# condition label: COS7 hTOR1A mutant lysate, 635 nm fluorescence, higher = more signal
quantity measured: composite z-score
Lab note: record just the number, no unit beside it.

Consider the following illustrative entries.
{"columns": ["mol smiles", "tested target", "quantity measured", "test result"],
 "data": [
  ["COCCOC(=O)N1C(=O)[C@@]2(c3cc(C#CCC(C(=O)OC)C(=O)OC)ccc31)[C@H](C(=O)N1CCCCCCC1)[C@H]1C(=O)O[C@H](c3ccccc3)[C@H](c3ccccc3)N1[C@@H]2c1ccc(O)cc1", "Torsin-1A (Homo sapiens)", "composite z-score", 1.41],
  ["CCC[C@@H]1C[C@@]1(CCC)[C@@H](NC(=O)c1cccs1)c1ccc(Cl)cc1", "Torsin-1A (Homo sapiens)", "composite z-score", -0.412],
  ["COC(=O)[C@@]1(Cc2ccc(OC)cc2)[C@H]2c3cc(C(=O)N4CCCC4)n(Cc4ccc(C)o4)c3C[C@H]2CN1C(=O)c1ccccc1", "Torsin-1A (Homo sapiens)", "composite z-score", 0.285]
]}

## Input What does the data say about its composite z-score? Entry: `C[N+](C)(C)CCCC[C@@H]1NC(=O)[C@@H]2C[C@H](C(=O)NCCCCCNC(=O)CS)[C@H](c3cccc(OCCO)c3)N2C1=O`
## Output 0.186

## Input Next record, please: `COC(=O)[C@@]1(Cc2ccc(F)cc2)[C@H]2c3cc(C(=O)N(C)C)n(Cc4ccc(C)c(F)c4F)c3C[C@H]2CN1C(=O)c1ccccc1`
## Output 0.432

## Input Repeat with `O=C(O)[C@@]1(Cc2ccccc2)COC(c2ccc(OCCCO)cc2)=N1`
## Output 1.52

## Input Moving on to `C[C@@]1([C@@H](NC(=O)c2cccs2)c2ccc(-c3ccccc3)cc2)C[C@H]1C1CCCCC1`
## Output -0.787

----------
# test description: changes in parasitized red cell lysis, either direction – P. falciparum Indochina, OD700, 3 h, PSAC antagonist project, primary screen (AID 1156)
# condition label: P. falciparum-infected erythrocytes, osmotic lysis, higher = more signal, called active from +8 up or from −8 down
quantity measured: z-score
# output: bare number, no unit

{"columns": ["molecule", "z-score"],
 "data": [
  ["COc1cc(C(O)C2C=CC3C(=O)NC(=O)C3N2Nc2ccc(Cl)cc2Cl)cc(OC)c1OC (stereo not drawn)", 0.0681],
  ["O=C1C2C=CC(C(O)c3ccc(Br)cc3)N(Nc3ccccc3)C2C(=O)N1c1ccccc1 (stereo not drawn)", 0.244],
  ["CC(C)C[C@H]1NC(=O)[C@H](C)NC(=O)[C@@]23C(=O)N[C@@H](Cc4ccccc4)C2[C@H](C)[C@@]2(C)O[C@H]2C3/C=C/C/C=C\\CNC1=O (stereo partly drawn)", 0.137],
  ["CO[C@H]1O[C@H](CO)[C@@H](OC(=O)c2ccc(Br)cc2)[C@@H]2OC(=O)[C@H](Cc3cccc(Br)c3)C/C=C/C[C@@H](Cc3cccc(Br)c3)C(=O)O[C@@H]12", -0.778],
  ["N#Cc1ccc(NN2C(C(O)c3ccccc3)C=CC3C(=O)N(c4ccccc4)C(=O)C32)cc1 (stereo not drawn)", 1.65]
]}

## Input z-score for CC(C)c1ccc(NN2C(C(O)c3ccccn3)C=CC3C(=O)N(c4ccccc4)C(=O)C32)cc1 (stereo not drawn) ?
## Output 2.42

## Input Follow-up entry: `C[C@H]1ON(c2ccccc2)[C@@H](c2ccccc2)[C@@H]1C(=O)N1C(=O)OC[C@@H]1c1ccccc1`
## Output -0.372

## Input Proceed to `COC(=O)[C@@]1(Cc2ccc(F)cc2)[C@@H]2[C@@H](CC(=O)[C@H]2CC(=O)C(=O)N2CCCC2)CN1C(=O)c1ccccc1`
## Output 0.747

## Input Okay, and `CC(C)N1C(=O)c2ccccc2[C@](C)(C(=O)O)[C@@H]1c1ccc(CO)cc1` ?
## Output 0.209

## Input Would you mind doing `CCOC(=O)C1=CC[C@@H](c2ccccc2)N(S(=O)(=O)c2ccc(C)cc2)[C@H]1C=C(C)C` as well?
## Output -0.627

## Input // same read-out, input: `COC(=O)[C@@]1(Cc2ccccc2)[C@H]2c3cc(C(=O)N(C)C)n(Cc4ccc(O)c(OC)c4)c3C[C@H]2CN1C(=O)c1ccccc1`
## Output 0.158

## Input Entry `COCCCNC(=O)[C@@]1(Cc2ccccc2)COC(c2ccc(OCCCO)cc2)=N1` please
## Output 1.12

## Input Same again, this time with `C[N+](C)(C)CCCC[C@@H]1NC(=O)[C@H]2C[C@@H](C(=O)NCCCCCCN)[C@@H](c3cccc(OCCO)c3)N2C1=O`
## Output 3.3

## Input Let us now turn to `[N-]=[N+]=NCc1ccccc1[C@H]1OC(c2ccc(OCCCO)cc2)=N[C@@]1(Cc1ccccc1N=[N+]=[N-])C(=O)N1CCCCC1`
## Output 2.7

## Input Repeat with `COC(=O)[C@@]1(Cc2ccc(OC)cc2)[C@H]2c3cc(C(=O)N4CCCC4)n(CCc4ccc(O)c(OC)c4)c3C[C@H]2CN1C(=O)c1ccccc1`
## Output 0.394

----------
Entries and their composite z-score values follow.
# Test system: Human papillomavirus type 1a protein E7 (residues 44-93)
# test description: small molecules binding HPV E7 44-93 – biochemical, small-molecule microarray, residues 44-93, 635 nm fluorescence, primary screen (AID 1108);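 also: E7 fragment applied at 1 µg/mL in TBST for 1 h at 4 C; score combines spot fluorescence with its signal to noise ratio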
# condition label: fluorescence 635 nm, higher = more signal

{"columns": ["compound", "tested target", "composite z-score"],
 "data": [
  ["CN(C)C(=O)[C@@]1(CCS(=O)(=O)c2ccccc2)N=C(c2ccc(OCCCO)cc2)O[C@H]1c1ccccc1CN=[N+]=[N-]", "Human papillomavirus type 1a protein E7 (residues 44-93)", 1.42],
  ["NC(=O)[C@H]1[C@@H]2C(=O)O[C@@H](c3ccccc3)[C@@H](c3ccccc3)N2[C@@H](c2ccc(O)cc2)[C@]12C(=O)Nc1ccc(C#CC3(O)CCCCCC3)cc12", "Human papillomavirus type 1a protein E7 (residues 44-93)", 1.45],
  ["CCC[C@@H]1C[C@@]1(CCC)[C@@H](NC(=O)c1ccco1)c1ccc(Cl)cc1", "Human papillomavirus type 1a protein E7 (residues 44-93)", -1.06],
  ["COC(=O)[C@@]1(Cc2ccc(F)cc2)[C@@H]2[C@@H](CC(=O)[C@H]2CC(=O)C(=O)N2CCCC2)CN1C(=O)c1ccccc1", "Human papillomavirus type 1a protein E7 (residues 44-93)", 1.43],
  ["CO[C@H]1O[C@H](CO)[C@@H](OC(=O)Nc2cccc(F)c2)[C@H](OC(=O)Nc2ccc3c(c2)OCO3)[C@H]1OC(=O)Nc1ccc2c(c1)OCO2", "Human papillomavirus type 1a protein E7 (residues 44-93)", 1.12],
  ["CN(C)CCCNC(=O)[C@@]1(Cc2ccccc2I)c2ccccc2C(=O)N(Cc2ccccc2Cl)[C@H]1c1ccc(CO)cc1", "Human papillomavirus type 1a protein E7 (residues 44-93)", -0.93],
  ["O=C1CSC(c2cccc([N+](=O)[O-])c2)N1c1ccccc1 (stereo not given)", "Human papillomavirus type 1a protein E7 (residues 44-93)", 0.551],
  ["O=C1N(CCS(=O)(=O)c2ccccc2)Cc2ccccc2C[C@@]12COC(c1ccc(OCCCO)cc1)=N2", "Human papillomavirus type 1a protein E7 (residues 44-93)", 1.08],
  ["COc1ccc([Si](C)(C)[C@@H]2[C@@H](CC(=O)N3Cc4ccccc4C[C@H]3CO)O[C@]3(C(=O)N(Cc4cccc(N5CCCCC5=O)c4)c4ccccc43)[C@H]2C)cc1", "Human papillomavirus type 1a protein E7 (residues 44-93)", 1.09],
  ["C=C[C@@H](O)[C@H]1CC(c2ccccc2)=NO1", "Human papillomavirus type 1a protein E7 (residues 44-93)", -0.893]
]}

## Input Can you look up the measured composite z-score of `C=C[C@H](C)[C@H](OC(=O)Nc1ccc(SC)cc1)c1ccc(O)c2ccccc12` for me?
## Output -1.97

## Input Then this compound: `CCCCC(=C=CC[C@H](O)c1cccc(OCCO)c1)C[C@H](O)COCc1ccccc1`
## Output 0.49

## Input Try the compound `CN(C)CCCCNC(=O)[C@H]1C[C@H]2C(=O)N[C@@H](CCCC[N+](C)(C)C)C(=O)N2[C@H]1c1cccc(OCCO)c1`
## Output 1.37

## Input Now consider `C#CCOC(=O)N[C@H](C=CCCCC)c1ccccc1` .
## Output -0.0543

## Input Again, but for `O=C1O[C@@H](c2ccccc2)[C@@H](c2ccccc2)N2[C@@H](c3ccc(O)cc3)[C@]3(C(=O)Nc4ccc(C#CC5(O)CCCCCC5)cc43)[C@@H](C(=O)N3CCN(c4ncccn4)CC3)[C@H]12`
## Output 1.4
